pIC50: −log10 of the molar value.
Please consider the recorded pIC50 for PIK3CA (human) in what follows.
quantity measured: pIC50

In [3]: df
Out[3]:
                                  structure  quantity_measured        result
0  CN(C)C(=O)c1ccc(NC(=O)Nc2ccc(-c3nc(N4CCOCC4)c4cccc(-c5cccc(O)c5)c4n3)cc2)cc1              pIC50  6.70 to 7.30
1  CN(C)C(=O)c1ccc(NC(=O)Nc2ccc(-c3nc(N4CCOCC4)c4ncc(-c5cncnc5)cc4n3)c(F)c2)cc1              pIC50        > 7.30
2  Cc1ccc(-c2ccc3c(N4CCOCC4)nc(-c4ccc(NC(=O)Nc5ccc(C(=O)N(C)C)cc5)nc4)nc3c2)o1              pIC50        > 7.30
3  Cc1ccc(-c2cc3nc(-c4ccc(NC(=O)Nc5ccc(C(=O)N(C)C)cc5)cc4)nc(N4CCOCC4)c3cc2F)o1              pIC50  6.70 to 7.30
4  CN(C)C(=O)c1ccc(NC(=O)Nc2ccc(-c3nc(N4CCOCC4)c4ccc(-c5ccco5)cc4n3)c(F)c2)cc1              pIC50  6.70 to 7.30
5  CN(C)[C@H]1CCN(C(=O)c2ccc(NC(=O)Nc3ccc(-c4nc(N5CCOCC5)c5ncc(-c6cccnc6F)cc5n4)cc3F)cc2)C1              pIC50        > 7.30
6  CN(C)C(=O)c1ccc(NC(=O)Nc2ccc(-c3nc(N4CCOCC4)c4ccc(-c5cnc(N)nc5)cc4n3)cc2)cc1              pIC50        > 7.30
